Target: T1, KGF (rat) (Rattus norvegicus, UniProt Q02195 Q02195:32-194)
T1 sequence: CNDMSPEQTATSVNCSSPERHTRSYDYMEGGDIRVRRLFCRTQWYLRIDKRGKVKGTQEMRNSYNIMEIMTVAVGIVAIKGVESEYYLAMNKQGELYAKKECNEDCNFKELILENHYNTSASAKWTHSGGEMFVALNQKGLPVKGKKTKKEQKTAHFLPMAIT
Assay: filter; high affinity component; Kd2 70.0 nM
Details: tags: QED Advanced Research Technologies; label: 32P; pseudoknot (predicted)
Reported Metric: Kd (pM)
Respond with the bare value in pM.

What value of Kd has been reported for the following binder? GGGAGGACGAUGCGGUGGUCUCCCAAUUCUAAACUUUCUCCAUCGUAUC (ssRNA, 2'-F pyrimidines) [14F3'T] 4.1
